The values you see were collected from patent US12187723B2.

Readings of pIC50 for the listed compounds
- Study system: human TLR7 (Homo sapiens)
- Sequence (Q9NYK1 27-1049): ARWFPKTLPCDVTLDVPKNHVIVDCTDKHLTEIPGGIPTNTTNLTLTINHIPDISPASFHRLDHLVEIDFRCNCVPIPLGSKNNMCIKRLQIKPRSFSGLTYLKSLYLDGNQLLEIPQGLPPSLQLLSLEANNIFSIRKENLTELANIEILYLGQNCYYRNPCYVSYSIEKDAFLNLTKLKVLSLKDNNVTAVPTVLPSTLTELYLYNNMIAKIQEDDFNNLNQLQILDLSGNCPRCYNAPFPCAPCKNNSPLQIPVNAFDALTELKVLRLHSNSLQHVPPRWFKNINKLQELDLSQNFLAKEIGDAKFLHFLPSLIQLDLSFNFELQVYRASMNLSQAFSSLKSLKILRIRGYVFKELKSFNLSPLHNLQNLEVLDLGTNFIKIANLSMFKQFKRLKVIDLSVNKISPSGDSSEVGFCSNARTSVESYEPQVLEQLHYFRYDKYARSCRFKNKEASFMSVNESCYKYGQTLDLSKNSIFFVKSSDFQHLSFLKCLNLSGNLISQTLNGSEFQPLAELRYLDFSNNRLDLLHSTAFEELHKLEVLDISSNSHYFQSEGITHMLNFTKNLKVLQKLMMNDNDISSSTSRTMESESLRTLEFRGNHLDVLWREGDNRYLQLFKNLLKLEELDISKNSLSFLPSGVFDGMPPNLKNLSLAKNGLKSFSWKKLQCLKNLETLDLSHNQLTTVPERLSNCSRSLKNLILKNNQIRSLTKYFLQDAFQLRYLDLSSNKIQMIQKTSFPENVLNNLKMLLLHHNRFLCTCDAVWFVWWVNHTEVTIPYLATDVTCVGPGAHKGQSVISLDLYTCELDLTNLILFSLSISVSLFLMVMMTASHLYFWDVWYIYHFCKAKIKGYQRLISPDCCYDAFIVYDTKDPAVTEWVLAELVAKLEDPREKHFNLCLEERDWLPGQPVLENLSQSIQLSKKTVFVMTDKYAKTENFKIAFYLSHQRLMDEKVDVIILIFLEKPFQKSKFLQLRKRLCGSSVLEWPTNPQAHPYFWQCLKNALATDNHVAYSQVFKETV
- Assay: TLR7 inhibition reporter assay (HEK-Blue SEAP)
- Applied conditions: HEK-Blue cells overexpressing human TLR7, gardiquimod 7.5 μM, 22 hour incubation
Give only the number. pIC50 is defined as minus log10 of concentration in molar units.

Observe how each entry below is paired with its result.
Compound	Study system	pIC50
CCc1cc2c(cc1-c1cc(OC)c3ncnn3c1)[nH]c(=O)n2[C@@H]1CCCN(C(C)C)C1	human TLR7 (Homo sapiens)	8.84
COc1cc(-c2cc3[nH]c(=O)n([C@H]4CCCN(CC5CC5)C4)c3cc2C(C)C)cn2ncnc12 (single isomer, unassigned) [Example 128]	human TLR7 (Homo sapiens)	7.36
COc1cc(-c2cc3[nH]c(=O)n(C4CCN(C5CCOCC5)CC4)c3cc2C(C)C)cn2ncnc12	human TLR7 (Homo sapiens)	7.95
CCCN(CCC)[C@H]1CC[C@@H](n2c(=O)[nH]c3cc(-c4cn5ncnc5c(C)c4C)c(C(C)C)cc32)CC1	human TLR7 (Homo sapiens)	8.30

For the next question, use this compound.
The compound listed as COc1cc(-c2cc3[nH]c(=O)n(C4CCN(C5COC5)CC4)c3cc2C(C)C)cn2ncnc12 has a reported pIC50 of 7.11
